TGT: human recombinant adrenergic α2B receptor (Homo sapiens)
Construct: expressed in transfected cells; host or cells: CHO-K1
Sequence (P18089 whole entry): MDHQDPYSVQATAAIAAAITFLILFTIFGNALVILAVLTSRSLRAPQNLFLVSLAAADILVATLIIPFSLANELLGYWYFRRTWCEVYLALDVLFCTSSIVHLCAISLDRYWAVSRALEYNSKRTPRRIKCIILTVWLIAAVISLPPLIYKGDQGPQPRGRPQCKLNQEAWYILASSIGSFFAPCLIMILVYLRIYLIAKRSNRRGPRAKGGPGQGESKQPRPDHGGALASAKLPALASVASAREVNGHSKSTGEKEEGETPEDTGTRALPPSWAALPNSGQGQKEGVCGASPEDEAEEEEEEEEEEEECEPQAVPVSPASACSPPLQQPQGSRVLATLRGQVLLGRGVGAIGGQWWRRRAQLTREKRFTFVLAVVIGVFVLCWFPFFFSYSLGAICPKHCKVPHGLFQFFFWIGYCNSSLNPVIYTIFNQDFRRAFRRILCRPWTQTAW
ASSAY_SUMMARY: Adrenergic α2B radioligand binding ([3H]Rauwolscine)
RUN_PARAMETERS: 0.03 μM compound; 0.03 µM
READOUT_KIND: Percentage inhibition of ligand binding, Adrenergic α2B (%)

COMPOUND | NUMBER
Cc1ccc2c(c1)c1c(n2CC2(O)CCc3ccccc32)CCN(C)C1 (single isomer, unassigned) [ii-111b] | 0
Cc1ccc2c(c1)c1c(n2CC2(O)CCCc3ncccc32)CCN(C)C1 (single isomer, unassigned) [ii-112b] | 40
Cc1ccc2c(c1)c1c(n2CC2(O)CCCc3ccncc32)CCN(C)C1 (single isomer, unassigned) [ii-113b] | 68

A: Cc1ccc2c(c1)c1c(n2CC2(O)CCCc3cnccc32)CCN(C)C1 (single isomer, unassigned) [ii-74b]
B: Cc1ccc2c(c1)c1c(n2CC2(O)CCCc3ccncc32)CCN(C)C1 (single isomer, unassigned) [ii-113a]
Recorded Percentage inhibition of ligand binding, Adrenergic α2B values differ for A and B ; which one is higher? // return label of chosen record
A
(A: 69%, B: 23%)

I: Cc1ccc2c(c1)c1c(n2CC2(O)CCc3ccccc32)CCN(C)C1 (single isomer, unassigned) [ii-111a]
II: Cc1ccc2c(c1)c1c(n2CC2(O)CCCc3cnccc32)CCN(C)C1 (single isomer, unassigned) [ii-74a]
Which record shows the lower Percentage inhibition of ligand binding, Adrenergic α2B: the first, I , or the second, II ? // return label of chosen record
II
(II: 22%, I: 76%)
